Source listed as ChEMBL document CHEMBL1153277.

# tested.target: Neuronal acetylcholine receptor subunit alpha-7 (Homo sapiens)
# Sequence (P36544 whole entry): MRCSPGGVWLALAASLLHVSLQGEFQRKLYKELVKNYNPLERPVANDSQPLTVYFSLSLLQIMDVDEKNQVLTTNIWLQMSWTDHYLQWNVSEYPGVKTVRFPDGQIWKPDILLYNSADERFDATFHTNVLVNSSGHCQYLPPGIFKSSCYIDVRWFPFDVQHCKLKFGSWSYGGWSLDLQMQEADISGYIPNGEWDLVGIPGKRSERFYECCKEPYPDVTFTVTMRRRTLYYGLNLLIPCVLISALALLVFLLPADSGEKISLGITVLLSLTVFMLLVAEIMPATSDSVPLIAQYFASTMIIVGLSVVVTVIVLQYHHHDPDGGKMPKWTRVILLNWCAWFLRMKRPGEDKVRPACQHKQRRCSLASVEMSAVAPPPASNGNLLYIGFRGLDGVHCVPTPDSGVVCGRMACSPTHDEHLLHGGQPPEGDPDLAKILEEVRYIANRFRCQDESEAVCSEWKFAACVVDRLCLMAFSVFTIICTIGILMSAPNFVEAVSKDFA
# procedure.summary: Agonist activity at human recombinant alpha7 nAChR expressed in rat GH3 cells by calcium influx assay
# Format: functional, cell-based
metric: Emax (%)
Entry rule: numbers only, all in %.

For orientation, consider the following solved cases.
Clc1ccc([C@@H]2C[C@H]3CC[C@@H]2N3)cn1 [(+)-EPIBATIDINE]    100
COc1cccc([C@@H]2C[C@H](CN3CCCC3)C(=O)N2C)c1 (relative stereo)    80
CN1C(=O)[C@@H](CN2CCCCC2)C[C@H]1c1ccc(Cl)cc1 (relative stereo)    110

Challenge: Looking for the measured Emax of Cc1ccccc1C#C[C@@H]1C[C@H](CN2CCCCC2)C(=O)N1C (relative stereo) , can you help?
Response given: 83

Challenge: Looking for the measured Emax of CN1C(=O)[C@@H](CN2CCCCC2)C[C@H]1C#Cc1ccccc1Cl , can you help?
Response given: 89

Challenge: Looking for the measured Emax of Cc1cc([C@@H]2C[C@H](CN3CCCCC3)C(=O)N2C)sc1-c1ccccc1Cl (relative stereo) , can you help?
Response given: 81
